system: UACC-257 melanoma; assay: NCI tumour cell line growth inhibition, 48 h
Some molecules, each annotated with its measured TGI.
Readout Label: TGI

>>> recorded_measurement("Cc1nnc2n1N=C(c1cc(F)c(Cl)cc1Cl)/C(=C/c1ccc(Cl)cc1)S2")
"44.6 µM"
>>> recorded_measurement("C=CCN1C(=O)/C(=C/c2ccccc2)N=C1SC1OC(COC(=O)c2ccccc2)C(OC(=O)c2ccccc2)C1OC(=O)c1ccccc1 (stereo not given)")
"> 100 µM"
>>> recorded_measurement("COC(=O)C1(C(=O)OC)CC2=C(S(=O)(=O)c3ccccc3)C[C@H](S(=O)(=O)c3ccccc3)[C@H]2C1")
"> 100 µM"
>>> recorded_measurement("COCCOCOc1ccc(OCc2ccccc2)cc1")
"> 100 µM"
>>> recorded_measurement("COC1C(CN[N+](=O)CC2OC3OC(C)(C)OC3C2OC)OC2OC(C)(C)OC21 (stereo not given)")
"> 100 µM"
>>> recorded_measurement("CCc1c(Oc2ccc(C(C)=O)cc2)c2ccccc2[nH]c1=O")
"55.1 µM"
>>> recorded_measurement("Clc1ccc(C2N3CCCCC3[C@@H]3c4[nH]c5ccccc5c4CCN23)cc1 (stereo not given in full)")
"> 100 µM"
>>> recorded_measurement("CC1=C(CCCNS(C)(=O)=O)C2=C(C)C3(CC3)[C@@](C)(O)C(=O)C2=C1")
"4.41 µM"
>>> recorded_measurement("N.N.N.O=[N+]([O-])[O-].O=[N+]([O-])[O-].O=[N+]([O-])[O-].O=[N+]([O-])[O-].[Co+3]")
"> 100 µM"
>>> recorded_measurement("COc1ccc(OC)c(NC(=O)C(=O)C(C(C)=O)c2nc3ccc(Cl)cc3[nH]c2=O)c1 (stereo not given)")
"> 50 µM"
>>> recorded_measurement("CC1=C2C(=O)NN=C2CCN1c1ccc(Br)cc1")
"> 100 µM"
>>> recorded_measurement("CCOC(=O)c1csc(NC(=O)CCN(CC)CC)n1")
"> 100 µM"
>>> recorded_measurement("CCOC(=O)CCc1cc(=O)oc2cc(O)cc(O)c12")
"> 100 µM"
>>> recorded_measurement("COc1ccc2[nH]c(O)c(/C=c3/cc4c(c(-c5cc(OC)c(OC)c(OC)c5)n3)=Nc3ccccc3-4)c2c1")
"> 100 µM"
>>> recorded_measurement("O=c1nc(N2CCN(c3ccccc3)CC2)ccn1C1OC(CO)C(O)C1O (stereo not given)")
"> 100 µM"
>>> recorded_measurement("Nc1ccc2nc(-c3ccccn3)c(-c3ccccn3)nc2c1")
"> 100 µM"
>>> recorded_measurement("COc1ccc(/C(=C2\\O[C@@H]([C@H]3COC(C)(C)O3)[C@H]3OC(C)(C)O[C@@H]23)c2cc(OC)c(OC)c(OC)c2)cc1O")
"> 100 µM"
>>> recorded_measurement("O=C(O)CCCCC(CCSCc1ccccc1)SCc1ccccc1 (stereo not given)")
"> 100 µM"
>>> recorded_measurement("CCN(CC)c1c(C(=O)/C=C/c2ccccc2)c(-c2ccccc2)nn(C)c1=O")
"> 100 µM"
>>> recorded_measurement("O=C(O)c1cc2c(cc1CC(Cc1ccc3c(c1)CCC3)C(=O)O)CCC2 (stereo not given)")
"> 100 µM"

* * *

test system: A549 NSCLC; experiment: NCI tumour cell line growth inhibition, 48 h
Readout Label: GI50

>>> recorded_measurement("C=C(CN1CCc2ccccc2C1)c1ccc(C(=O)Nc2cnccn2)cc1")
"31 µM"
>>> recorded_measurement("CCCCC(=O)OCC1OC(n2cnc3c(=S)nc[nH]c32)C(OC(=O)CCCC)C1OC(=O)CCCC (stereo not given)")
"> 25.3 µM"
>>> recorded_measurement("COc1ccc2c(c1)c(-c1nc(-c3cn(C)c4ncccc34)cs1)cn2CCCN1CCCCC1")
"1.87 µM"
>>> recorded_measurement("CSc1cc(N=Nc2nc3ccccc3s2)c2ccccc2c1O")
"12.1 µM"
>>> recorded_measurement("CCOc1cccc(/C=N/NC(=O)c2ccccc2Nc2ccnc(C(F)(F)F)c2)c1O")
"1.64 µM"

* * *

Each record here notes measured TGI.
tested on: MOLT-4 leukemia; assay: NCI tumour cell line growth inhibition, 48 h
Readout Label: TGI

>>> recorded_measurement("COC(=O)C1(C(=O)OC)CC2=C(S(=O)(=O)c3ccccc3)C[C@H](S(=O)(=O)c3ccccc3)[C@H]2C1")
"> 100 µM"
>>> recorded_measurement("Cc1c(-c2nc3ccccc3[nH]2)c(=O)n(-c2ccccc2)n1C")
"> 100 µM"
>>> recorded_measurement("COCOC1/C=C/CCCC#C[C@H](C)C(=O)CC1 (some centres undefined)")
"> 29.4 µM"
>>> recorded_measurement("O=C(NCCOCCOCCNc1cccc2c1C(=O)N(C1CCCNC1=O)C2=O)c1cc2c(o1)C(=O)c1ccccc1C2=O (centres undefined)")
"6.01 µM"
>>> recorded_measurement("Cc1nc(-c2ccc([N+](=O)[O-])cc2)cn2c1nc1ccccc12")
"> 100 µM"
>>> recorded_measurement("Cc1ccc(CS/C(=C\\c2ccc([N+](=O)[O-])cc2)C(=O)c2ccc(F)cc2)cc1")
"> 100 µM"
>>> recorded_measurement("OCCC1(O)CCC(O)CC1 (centres undefined)")
"> 100 µM"
>>> recorded_measurement("NCC1CCN(c2nc3ccccc3c3c2CCCC3)CC1")
"11.7 µM"
>>> recorded_measurement("Cc1ccc(S(=O)(=O)N(CCOc2ccc(/C(N)=N/Cl)cc2)CCOc2ccc(/C(N)=N\\Cl)cc2)cc1")
"> 100 µM"

* * *

tested on: NCI-H23 lung; experiment: NCI tumour cell line growth inhibition, 48 h
Assign 1 whenever TGI does not fall below 30 µM; assign 0 whenever it does.

>>> class("COc1ccc2[nH]c(O)c(/C=c3/cc4c(c(-c5cc(OC)c(OC)c(OC)c5)n3)=Nc3ccccc3-4)c2c1")
1
>>> class("COc1cnc2cc(C(=O)O)c3c([N+](=O)[O-])cccc3c2c1")
1
>>> class("C=CCN1C(=O)/C(=C/c2ccccc2)N=C1SC1OC(COC(=O)c2ccccc2)C(OC(=O)c2ccccc2)C1OC(=O)c1ccccc1 (stereo unspecified)")
1
>>> class("COC(=O)C[C@H]1CCC2(OCCO2)[C@]1(C)C(=O)OC")
1
>>> class("CCOC(=O)NC(=O)c1cn(C2OC(COC(=O)CCCCCCCCC(=O)OCC3OC(n4cc(C(=O)NC(=O)OCC)c(=O)[nH]c4=O)C(O)C3O)C(O)C2O)c(=O)[nH]c1=O (stereo unspecified)")
1
>>> class("Cc1nnc2n1N=C(c1cc(F)c(Cl)cc1Cl)/C(=C/c1ccc(Cl)cc1)S2")
1
>>> class("COc1ccc2cc1Oc1ccc(cc1)CC1c3cc(c(OC)cc3CCN1C)Oc1c3c(cc4c1C(C2)N(C)CC4)OCO3 (stereo unspecified)")
1
>>> class("O=C(CN1CCOCC1)Nc1ccc(Cn2nnc3c2C(=O)c2nnn(Cc4ccc(NC(=O)CN5CCOCC5)cc4)c2C3=O)cc1")
0
>>> class("COCCOCOc1ccc(OCc2ccccc2)cc1")
1
>>> class("COc1cc(OC)cc(-c2ccc(-c3ccc(C(=N)N)o3)o2)c1")
0
>>> class("Cn1cc(-c2cnc3ccc(NC(=O)Nc4ccc(F)c(Br)c4)cc3n2)cn1")
0
>>> class("Clc1ccc(C2N3CCCCC3[C@@H]3c4[nH]c5ccccc5c4CCN23)cc1 (stereo partly specified)")
1
>>> class("O=C(Nc1ccc(N2CCNCC2)cc1)c1[nH]ncc1Nc1cc(Oc2ccccc2)ncn1")
0
>>> class("O=C(N/N=C/c1ccccc1O)c1cccc([N+](=O)[O-])c1")
1
>>> class("O=C1/C(=C/c2ccc(Cl)cc2Cl)N=C(c2ccccc2)N1Cc1ccco1")
1
>>> class("OCC1CCCCCCCCCCC12SCCCS2 (stereo unspecified)")
1
>>> class("COC(=O)CC(=O)C[P+](c1ccccc1)(c1ccccc1)c1ccccc1")
1
>>> class("CCCCC(=O)OCC1OC(n2cnc3c(=S)nc[nH]c32)C(OC(=O)CCCC)C1OC(=O)CCCC (stereo unspecified)")
1
>>> class("O=C1C=CC(=Nc2ccc3c(c2)C(Br)c2ccccc2-3)O1 (stereo unspecified)")
1
>>> class("O=c1oc2ccc(F)cc2c(=O)n1-c1ccc(F)cc1F")
0
>>> class("CSc1cc(N=Nc2nc3ccccc3s2)c2ccccc2c1O")
0
>>> class("CC(CN1c2ccccc2Sc2ccccc21)N(C)C (stereo unspecified)")
1
>>> class("COc1ccc2ccc3c(c2c1)CN1CCc2cc(OC)c(OC)cc2C1C3 (stereo unspecified)")
1
>>> class("CCCCCCCCCCCCCCCCCCNc1ccn(C2OC(COP(=O)(O)OCC3OC(n4ccc(NC(=O)CCCCCCCCCCCCCCCCC)nc4=O)C(OC(C)=O)C3OC(C)=O)C(OC(C)=O)C2OC(C)=O)c(=O)n1 (stereo unspecified)")
1
>>> class("N#CSCC1CC(O)(c2ccccc2)C(c2ccccc2)C(c2ccc(Cl)cc2)O1 (stereo unspecified)")
0
>>> class("O=C(c1ccco1)c1nc2ccc(C(F)(F)F)cc2[n+]([O-])c1C(F)(F)F")
1
>>> class("CCCCNC1=C(C(=O)OCC)C(=O)CO1")
1
>>> class("Cn1c(N2NC(=O)C(N=Nc3ccc(S(N)(=O)=O)cc3)C2=O)nc(-c2ccco2)c(C#N)c1=O (stereo unspecified)")
1
>>> class("O=C(O)CN(CCNC(=O)OCC1c2ccccc2-c2ccccc21)CCNC(=O)OCC1c2ccccc2-c2ccccc21")
1
>>> class("CC(C)Sc1nc(C#N)cc2c1CCCC2")
1
>>> class("COC(=O)CC(C(C(=O)OC)C(=O)OC)N1C(=O)OCC1c1ccccc1 (stereo unspecified)")
1
>>> class("CCc1c(Oc2ccc(C(C)=O)cc2)c2ccccc2[nH]c1=O")
1
>>> class("C#CCCCCC#Cc1ccccc1C(=O)OC")
1
>>> class("S=C(N/N=C\\C=N/NC(=S)N1CCCCC1)N1CCCCC1")
1
>>> class("CSc1nc(Cl)c2c(n1)Sc1nc3cc4c(cc3n1C2O)OCCO4 (stereo unspecified)")
0
>>> class("Cc1nc2c(nc1Cl)nc(Oc1ccc(Cl)cc1)c1ccccc12")
1
>>> class("N#C/C(=C/c1ccsc1)C(=O)c1ccccc1")
1
>>> class("CC1=C(CCCNS(C)(=O)=O)C2=C(C)C3(CC3)[C@@](C)(O)C(=O)C2=C1")
0
>>> class("CSc1ccc(C2=NN(C(C)=O)C(c3cc(C)cs3)C2)cc1 (stereo unspecified)")
1
>>> class("N=C1CSC2=NC3=C(CCC/C3=C\\c3ccccc3)C(c3ccccc3)N12 (stereo unspecified)")
0
>>> class("CCOC(=O)C1Cc2[nH]c3ccccc3c2C(C)C1C (stereo unspecified)")
0
